Catalogue of viability at 700 µM values
assay: Cytotoxicity against human PBMC assessed as cell viability at 700 uM after 3 to 5 days by XTT method; assay type: cell-based; conditions: PBMC (peripheral blood mononuclear cells), read-out: Activity
Give the number; % is assumed, so skip it.

Some solved cases for reference:
Smiles Str: O=C(O)c1cnc2sccc2c1Nc1ccc(F)cc1
viability at 700 µM [%]: 100
--
Smiles Str: Cc1ccc(Nc2c(C(=O)O)cnc3c2cnn3-c2ccccc2)cc1
viability at 700 µM [%]: 100
--
Smiles Str: COc1cccc(Nc2c(C(=O)O)cnc3c2cnn3-c2ccccc2)c1
viability at 700 µM [%]: 100
--
Smiles Str: O=C(O)c1cnc2sccc2c1Nc1cccc(F)c1
viability at 700 µM [%]: 100
--
Smiles Str: O=C(O)c1cnc2c(cnn2-c2ccccc2)c1Nc1ccc(Br)cc1
viability at 700 µM [%]: 92

--- query ---
Need viability at 700 µM, item O=C(O)c1cnc2sccc2c1Nc1cccc([N+](=O)[O-])c1 100

====

Catalogue of inhibition zone (IZ) values
system: Staphylococcus epidermidis; assay: Antibacterial activity against drug-resistant Staphylococcus epidermidis clinical isolate assessed as inhibition zone diameter after 24 hrs by antibacterial susceptibility test; assay type: functional
Give the number; mm is assumed, so skip it.

Smiles Str: O=C(O)c1cnc2sccc2c1Nc1cccc(Cl)c1
Uom: mm
inhibition zone (IZ): 0
--
Smiles Str: O=C(O)c1cnc2c(cnn2-c2ccccc2)c1Nc1cccc(Br)c1
Uom: mm
inhibition zone (IZ): 17
--
Smiles Str: O=C(O)c1cnc2sccc2c1Nc1cccc(F)c1
Uom: mm
inhibition zone (IZ): 0
--
Smiles Str: Cc1cccc(Nc2c(C(=O)O)cnc3c2cnn3-c2ccccc2)c1
Uom: mm
inhibition zone (IZ): 16
--
Smiles Str: CN[C@H](CC(C)C)C(=O)N[C@H]1C(=O)N[C@@H](CC(N)=O)C(=O)N[C@H]2C(=O)N[C@H]3C(=O)N[C@H](C(=O)N[C@H](C(=O)O)c4cc(O)cc(O)c4-c4cc3ccc4O)[C@H](O)c3ccc(c(Cl)c3)Oc3cc2cc(c3O[C@@H]2O[C@H](CO)[C@@H](O)[C@H](O)[C@H]2O[C@H]2C[C@](C)(N)[C@H](O)[C@H](C)O2)Oc2ccc(cc2Cl)[C@H]1O
Uom: mm
inhibition zone (IZ): 15

Need inhibition zone (IZ), item O=C(O)c1cnc2c(cnn2-c2ccccc2)c1Nc1ccc(Cl)cc1 0

Need inhibition zone (IZ), item O=C(O)c1cnc2sccc2c1Nc1ccc(Cl)cc1 0

Need inhibition zone (IZ), item O=C(O)c1cnc2c(cnn2-c2ccccc2)c1Nc1ccccc1 0

Need inhibition zone (IZ), item O=C(O)c1cnc2sccc2c1Nc1cccc(Br)c1 0

Need inhibition zone (IZ), item O=C(O)c1cnc2c(cnn2-c2ccccc2)c1Nc1ccc([N+](=O)[O-])cc1 0

Need inhibition zone (IZ), item O=C(O)c1cnc2c(cnn2-c2ccccc2)c1Nc1cccc([N+](=O)[O-])c1 12

Need inhibition zone (IZ), item O=C(O)c1cnc2c(cnn2-c2ccccc2)c1Nc1ccc(F)cc1 0

Need inhibition zone (IZ), item O=C(O)c1cnc2sccc2c1Nc1ccc(F)cc1 0

Need inhibition zone (IZ), item O=C(O)c1cnc2sccc2c1Nc1cccc([N+](=O)[O-])c1 0

Need inhibition zone (IZ), item COc1ccc(Nc2c(C(=O)O)cnc3sccc23)cc1 0

Need inhibition zone (IZ), item O=C(O)c1cnc2sccc2c1Nc1ccccc1 0

Need inhibition zone (IZ), item Cc1ccc(Nc2c(C(=O)O)cnc3sccc23)cc1 0

Need inhibition zone (IZ), item COc1cccc(Nc2c(C(=O)O)cnc3c2cnn3-c2ccccc2)c1 15

Need inhibition zone (IZ), item COc1ccc(Nc2c(C(=O)O)cnc3c2cnn3-c2ccccc2)cc1 0

Need inhibition zone (IZ), item O=C(O)c1cnc2c(cnn2-c2ccccc2)c1Nc1cccc(Cl)c1 17

Need inhibition zone (IZ), item Cc1ccc(Nc2c(C(=O)O)cnc3c2cnn3-c2ccccc2)cc1 0

====

test system: Staphylococcus epidermidis; experiment: Antibacterial activity against drug-resistant Staphylococcus epidermidis clinical isolate assessed as inhibition zone diameter after 24 hrs by antibacterial susceptibility test; format: functional
Measurement Kind: inhibition zone (IZ)
Answer with the value and then the unit.

Smiles Str: Cc1cccc(Nc2c(C(=O)O)cnc3sccc23)c1
Observed Result: 0 mm
--
Smiles Str: COc1cccc(Nc2c(C(=O)O)cnc3sccc23)c1
Observed Result: 0 mm

Need inhibition zone (IZ), item O=C(O)c1cnc2sccc2c1Nc1ccc([N+](=O)[O-])cc1 0 mm

Need inhibition zone (IZ), item O=C(O)c1cnc2c(cnn2-c2ccccc2)c1Nc1cccc(F)c1 20 mm

Need inhibition zone (IZ), item O=C(O)c1cnc2sccc2c1Nc1ccc(Br)cc1 0 mm

Need inhibition zone (IZ), item O=C(O)c1cnc2c(cnn2-c2ccccc2)c1Nc1ccc(Br)cc1 10 mm

The origin of these recorded values is ChEMBL document CHEMBL1139420.
